Field pIC50: reported value for Thermolysin (Bacillus thermoproteolyticus, UniProt P00800); entries drawn from several documents.
pIC50: −log10 of the molar value.
Use MET when the recorded pIC50 is no lower than 8; use NOT MET when it is lower.

Examples from the recorded data:
Enquiry: hey, is pIC50 for this one >= 8? `O=C1N[C@H](C(=O)O)CCCCCCc2cccc(c2)C[C@H]1CS`
Return: NOT MET

Enquiry: hey, is pIC50 for this one >= 8? `O=C1N[C@@H](C(=O)O)Cc2ccccc2CCCCCCC[C@@H]1CS`
Return: NOT MET

Enquiry: hey, is pIC50 for this one >= 8? `O=C1N[C@H](C(=O)O)CCCCCCc2ccccc2C[C@H]1CS`
Return: NOT MET

More entries:
Enquiry: hey, is pIC50 for this one >= 8? CC(C)CC(C(=O)NO)C(=O)NC(Cc1c[nH]c2ccccc12)C(=O)O (stereo not given)
Return: MET

Enquiry: hey, is pIC50 for this one >= 8? `C[C@H](NC(=O)[C@@H](CC(=O)NO)Cc1ccccc1)C(=O)O`
Return: MET

Enquiry: hey, is pIC50 for this one >= 8? `O=C1N[C@@H](C(=O)O)Cc2ccccc2CCCCCC[C@@H]1CS`
Return: NOT MET

Enquiry: hey, is pIC50 for this one >= 8? `O=C1N[C@H](C(=O)O)CCCCc2ccccc2C[C@@H]1CS`
Return: NOT MET

Enquiry: hey, is pIC50 for this one >= 8? `O=C1N[C@H](C(=O)O)CCCCCc2cccc(c2)C[C@@H]1CS`
Return: NOT MET

Enquiry: hey, is pIC50 for this one >= 8? `O=C1N[C@H](C(=O)O)CCCCCCc2cccc(c2)C[C@@H]1CS`
Return: NOT MET
